- assay_overview: Blood to plasma partitioning ratio in human at 10 uM incubated for 30 mins by LC-MS/MS analysis
- Assay type: ADME, cell-free
- settings: whole blood

molecule	blood plasma ratio at 0.5 h, 10 µM
COc1cc(-c2cn(C)c(=O)c3cnc(N4CCC4)cc23)cc(OC)c1CN1CCC(CN2CCC3(CC2)CN(c2ccc4c(c2)C(=O)N([C@H]2CCC(=O)NC2=O)C4)C3)CC1	2.7
N#Cc1ccc(O[C@H]2CC[C@H](NC(=O)c3ccc(N4CCC(CN5CCN(c6cc7c(cc6F)C(=O)N([C@H]6CCC(=O)NC6=O)C7=O)CC5)CC4)nn3)CC2)cc1Cl	0.7
Cc1ncsc1-c1ccc([C@H](C)NC(=O)[C@@H]2C[C@@H](O)CN2C(=O)[C@@H](NC(=O)CCCCCC(=O)N2CCN(CC[C@H](CSc3ccccc3)Nc3ccc(S(=O)(=O)NC(=O)c4ccc(N5CCN(CC6=C(c7ccc(Cl)cc7)CCC(C)(C)C6)CC5)cc4)cc3S(=O)(=O)C(F)(F)F)CC2)C(C)(C)C)cc1	0.9
O=C1CC[C@H](N2Cc3cc(N4CCN(CC5CCN(c6ccc([C@@H]7c8ccc(O)cc8CC[C@@H]7c7ccccc7)cc6)CC5)CC4)ccc3C2=O)C(=O)N1	0.7
CNC(=O)COc1cc2cc(Nc3nc(N4CCC(O[C@H]5C[C@H](N6CCC(c7ccc8c(c7F)CN(C7CCC(=O)NC7=O)C8=O)CC6)C5)CC4)ncc3Cl)ccc2n(C(C)C)c1=O (some centres undefined)	0.8
COc1cc(O[C@H]2C(C)(C)[C@H](NC(=O)c3ccc(N4CCC(CN5CCN(c6ccc(C(=O)N[C@H]7CCC(=O)NC7=O)c(F)c6)CC5)CC4)cc3)C2(C)C)ccc1C#N [LUXDEGALUTAMIDE]	0.5
CCc1cc(N2C(=S)N(c3ccc(C#N)c(C(F)(F)F)c3)C(=O)C2(C)C)ccc1OCCN1CCN(CC(=O)Nc2cccc(NC3CCC(=O)NC3=O)c2)[C@H](C)C1 (some centres undefined)	0.6
NC(=O)c1ncc(N2CCCCC2)nc1Nc1ccc(C2CCN(C[C@@H]3CCN(c4ccc5c(c4)C(=O)N(C4CCC(=O)NC4=O)C5=O)C3)CC2)cc1 (some centres undefined)	0.8
CN1CCN([C@@H]2CCCN(c3cnc(C(N)=O)c(Nc4ccc(C5CCN(CC6CCN(c7ccc(C(=O)N[C@H]8CCC(=O)NC8=O)nc7)CC6)CC5)cc4)n3)C2)C1=O	1

----------
- assay_overview: Protein binding in human plasma assessed as compound recovery at 5 uM incubated for 18 hrs by LC-MS/MS analysis
- Type: ADME, cell-free
- settings: read-out: Drug recovery
Consider the following compounds and their measured recovery at 18 h, 5 µM readings.

compound	recovery at 18 h, 5 µM [%]
COc1cc(-c2cn(C)c(=O)c3cnc(N4CCC4)cc23)cc(OC)c1CN1CCC(CN2CCC3(CC2)CN(c2ccc4c(c2)C(=O)N([C@H]2CCC(=O)NC2=O)C4)C3)CC1	65
N#Cc1ccc(O[C@H]2CC[C@H](NC(=O)c3ccc(N4CCC(CN5CCN(c6cc7c(cc6F)C(=O)N([C@H]6CCC(=O)NC6=O)C7=O)CC5)CC4)nn3)CC2)cc1Cl	14
CNC(=O)COc1cc2cc(Nc3nc(N4CCC(O[C@H]5C[C@H](N6CCC(c7ccc8c(c7F)CN(C7CCC(=O)NC7=O)C8=O)CC6)C5)CC4)ncc3Cl)ccc2n(C(C)C)c1=O (stereo partly specified)	43
CN1CCN([C@@H]2CCCN(c3cnc(C(N)=O)c(Nc4ccc(C5CCN(CC6CCN(c7ccc(C(=O)N[C@H]8CCC(=O)NC8=O)nc7)CC6)CC5)cc4)n3)C2)C1=O [NX-5948]	40
NC(=O)c1ncc(N2CCCCC2)nc1Nc1ccc(C2CCN(C[C@@H]3CCN(c4ccc5c(c4)C(=O)N(C4CCC(=O)NC4=O)C5=O)C3)CC2)cc1 (stereo partly specified)	90
Cc1ncsc1-c1ccc([C@H](C)NC(=O)[C@@H]2C[C@@H](O)CN2C(=O)[C@@H](NC(=O)CCCCCC(=O)N2CCN(CC[C@H](CSc3ccccc3)Nc3ccc(S(=O)(=O)NC(=O)c4ccc(N5CCN(CC6=C(c7ccc(Cl)cc7)CCC(C)(C)C6)CC5)cc4)cc3S(=O)(=O)C(F)(F)F)CC2)C(C)(C)C)cc1 [DT-2216]	91

Taken from ChEMBL document CHEMBL6134898.
